protocol: antivirals protecting cells from dengue CPE – CPE readout, HTS (AID 540333)
condition.notes: Dengue virus CPE inhibition in host cells, at 20 µM
About 320 (3.2%) of roughly 10,000 compounds were called active. Rule as the data show it: active = CPE inhibition mostly above about 9.1% (no sharp cut-off); inactive = mostly below about 7.2%. The list comes from a sample in which actives are over-represented; it also holds close analogues and randomly drawn compounds.
Possible outcomes: active, inactive

compound	class.label
COc1ccc2c(c1)C(=O)N1[C@H]3c4cc(OC)ccc4OC[C@@H]3[C@H](c3ccccc3)[C@]1(C)C(=O)N2	inactive
CCNC(=S)N1CCN(CC(=O)Nc2ccc(Br)cc2)CC1	inactive
CC(=O)O[C@H]1CC[C@@]2(C)[C@@H](CC[C@H]3[C@@H]4CC[C@H](C(C)O)[C@@]4(C)CC(=O)[C@@H]32)C1 (stereo partly specified)	inactive
COc1ccc(N(C(=O)C2COc3ccccc3O2)C(C(=O)NC2CCCCC2)c2ccccc2)cc1OC (stereo unspecified)	inactive
O=C1NC(c2ccc(-c3ccccc3[N+](=O)[O-])o2)C(C(=O)c2ccc(F)cc2)C(O)(C(F)(F)F)N1 (stereo unspecified)	active
COc1ccc(NCc2ccc([N+](=O)[O-])s2)c(OC)c1	active
COc1ccc2c(c1)OC[C@H]1[C@H]2N2C(=O)CN(Cc3ccc(F)cc3)C(=O)[C@@]2(C)[C@H]1c1ccccc1	active
COc1cc(OC)cc(N(C(=O)C2COc3ccccc3O2)C(C(=O)NC2CCCCC2)c2ccc(O)cc2)c1 (stereo unspecified)	active
Cc1ccc(N2C(=O)[C@@H]3C(C(=O)C(c4ccccc4)c4ccccc4)=NN[C@@H]3C2=O)cc1	inactive
Cc1ccc(NC(=O)COC(=O)c2ccccc2Nc2ccccc2)cc1	inactive
O=C1NC(c2ccc(-c3ccccc3[N+](=O)[O-])o2)C(C(=O)c2ccc(Cl)cc2)C(O)(C(F)(F)F)N1 (stereo unspecified)	active
O=c1nc2s/c(=C\c3ccc(-c4ccccc4[N+](=O)[O-])o3)c(=O)n2nc1-c1ccccc1	inactive
Cc1ccc(NC(=O)CSc2nnc(-c3cccs3)o2)cc1S(=O)(=O)N1CCCCC1	inactive
COc1ccc(CC(=O)Nc2cc3oc4ccccc4c3cc2OC)cc1	inactive
Cc1cccn2c(=O)c(/C=C(\C#N)C(=O)NCc3ccco3)c(N3CCCC(C)C3)nc12 (stereo unspecified)	active
O=C1c2ccccc2NC(c2ccc(-c3cccc([N+](=O)[O-])c3)o2)N1O (stereo unspecified)	inactive
Cc1ccc(CNC(=O)c2ccc3c(c2)S(=O)(=O)c2ccccc2C3=O)o1	inactive
CC(=O)c1cc(-c2ccccc2)n(CC(=O)Nc2cccc(C)c2C)c1C	inactive
COc1ccc(NCc2ccccc2[N+](=O)[O-])cc1OC	inactive
COc1cc(C=Nc2cccc([N+](=O)[O-])c2C)ccc1OC(C)=O	inactive
Cc1cccn2c(=O)c(/C=C(\C#N)C(=O)NCc3ccco3)c(N3CCC(C(N)=O)CC3)nc12	inactive
CCOc1ccc(CSC(=N)N)cc1	inactive
O=C(CSc1nc2ccccc2s1)Nc1cc(S(=O)(=O)N2CCOCC2)ccc1O	inactive
CCOc1cccc(/C=N/NC(=S)Nc2cc(S(=O)(=O)N3CCOCC3)ccc2N2CCOCC2)c1O	inactive
O=C(/C=C/c1ccc(Br)cc1)NC(=S)Nc1ccc(S(=O)(=O)Nc2nccs2)cc1	inactive
CCOc1ccc(Br)cc1CSC(=N)N	active
S=C(Nc1ccc(Oc2ccccc2)cc1)NC1CCCCCC1	inactive
CCCn1c(C(C)Nc2nc(-c3ccc(Cl)c([N+](=O)[O-])c3)cs2)nc2ccccc21 (stereo unspecified)	active
COc1ccc(NC(=S)N(CCN(C)C)C(C)c2ccco2)cc1 (stereo unspecified)	inactive
O=C(/C=C/c1ccc(-c2ccccc2[N+](=O)[O-])o1)c1ccccc1	inactive
O=c1c2ccccc2cnn1Cc1n[nH]c(=S)n1-c1ccccc1	inactive
COc1ccc(NC(=O)CCC(=O)c2cccs2)cc1S(=O)(=O)Nc1ccc(Cl)cc1	inactive
O=C(CN1CCN(C(=S)NC2CCCC2)CC1)Nc1ccc(Oc2ccccc2)cc1	active
CC(C)(C)NC(=O)COC(=O)c1ccccc1Nc1ccc(SC(F)F)cc1	active
COc1ccc(NCc2ccc([N+](=O)[O-])s2)cc1	active
O=S(=O)(Nc1ccc2ccccc2c1)c1ccccc1	inactive
O=C(O)CSC(=S)N1CCCCC1	inactive
O=C(COC(=O)c1ccccc1Nc1ccccc1)Nc1ccccc1	inactive
O=C1CC(c2ccccc2)Sc2nc(-c3ccccc3)c(-c3ccccc3)n21 (stereo unspecified)	inactive
COc1ccccc1OCCn1cc(/C=C(\C#N)C(=O)NCc2cccs2)c2ccccc21	inactive
COc1cccc(NCc2ccc([N+](=O)[O-])s2)c1	inactive

* * *

protocol: antivirals protecting cells from dengue CPE – CPE readout, HTS (AID 540333)
condition.notes: Dengue virus CPE inhibition in host cells, at 20 µM
The campaign covered roughly 10,000 compounds. About 320 (3.2%) were called active. No stated cut-off is given here; in the data, active means CPE inhibition mostly above about 9.1% (no sharp cut-off); inactive means mostly below about 7.2%. The sample holds actives, similar compounds and a random draw of the others, so the mix is not that of the screen.
Possible outcomes: YES (active), NO (inactive)

compound	class.label
CC(C)(C)c1nnc(N/N=C/c2ccc(Br)cc2)n(N)c1=O	YES
CC1(C)C=C(c2ccc(C=O)s2)CC(C)(C)N1C=O	NO
O=C(Nc1ccn(-c2ccccc2)n1)c1ccc(Cl)cc1	NO
CCCNC(=S)N1CCN(C(c2ccccc2)c2ccccc2)CC1	NO
O=C1CN(C(=O)CSc2nnc3ccccn23)c2ccccc2N1	NO
Cc1ccc(-n2[nH]c3c4c(ccc3c2=O)C(=O)c2ccccc2C4=O)cc1	YES
O=C(Nc1cccc(Cl)c1)Nc1cc(S(=O)(=O)N2CCOCC2)ccc1N1CCCC1	NO
COc1ccc(CCNC(=O)COC(=O)C2CCCCC2)cc1	NO
Cc1ccc(S(=O)(=O)N/N=C2/CCCCC2C2CCCCC2)cc1[N+](=O)[O-] (centres undefined)	NO
CN(C)S(=O)(=O)c1ccc(NCC2COc3ccccc3O2)c([N+](=O)[O-])c1 (centres undefined)	NO
Cc1ccc(S(=O)(=O)Nc2ccc(-c3nnc(SCc4ccccc4Cl)o3)cc2)cc1	YES
FC(F)Oc1ccc(NC(=S)NCc2ccccc2)cc1	NO
O=S(=O)(c1ccc(F)cc1)N1CCN(C(=S)NCc2ccco2)CC1	NO
COC(=O)Nc1nnc(/C=C/c2ccc(OC)cc2)s1	NO
CCc1nnc(N/N=C/c2cccs2)n1N	NO
CCN(CC)S(=O)(=O)c1cc(NC(=O)COc2ccc(C#N)cc2OC)ccc1C	NO
CC(C)(C)c1nnc(N/N=C/c2ccccc2)n(N)c1=O	NO
C=CCOC(=O)C1=C[C@@H](c2ccc(C(F)(F)F)cc2)C[C@@H](OCCCCO)O1	NO
CCC(C)NC(=S)N1CCN(C(c2ccccc2)c2ccccc2)CC1 (centres undefined)	YES
CCOc1cc(/C=C(\C#N)C(N)=O)ccc1OS(=O)(=O)c1ccccc1	NO
C=CCN1C(=O)S/C(=C/c2ccc(Sc3nc4ccccc4[nH]3)o2)C1=O	YES
CCOC(=O)c1sc(NC(=S)NC(=O)c2ccccc2)c(C(=O)OCC)c1C	NO
O=C(CSc1nnc(-c2ccncc2)o1)NCc1ccccc1Cl	NO
Cc1ccc(-n2c(SCC(=O)N3c4ccccc4Sc4ccccc43)nnc2-c2ccncc2)cc1	YES
O=C(N/N=C/c1ccc(Sc2nc3ccccc3[nH]2)o1)c1ccncc1	NO
CCN1C(=O)S/C(=C/c2ccc(Sc3nc4ccccc4[nH]3)o2)C1=O	NO
CON1C(=O)C(=O)N(OC)C2CCCCCC21 (centres undefined)	NO
O=C(Oc1ccccc1C(=O)Nc1ccccc1)c1ccccc1Br	NO
COc1ccc(Cc2nnc(NC(=O)CSc3ccc(C)cc3)s2)cc1	NO
COc1ccc(/C=N/N2CCN(C3c4ccccc4-c4ccccc43)CC2)cc1OC	NO
CCNC(=S)Nc1cc(Cl)ccc1Oc1ccccc1	NO
O=C(Nc1ccc(F)cc1F)c1cc2ncc(CCCl)cn2n1	NO
COc1cc(/C=C2/C(=O)NN(c3ccc(Cl)cc3)C2=O)ccc1OC(=O)c1ccco1	YES
CC(C)c1ccc(S(=O)(=O)N2CCN(C(=S)NCc3ccco3)CC2)cc1	YES
COc1cc(/C=C2/C(=O)NN(c3cccc(F)c3)C2=O)ccc1OC(=O)c1ccco1	NO
CCOC(=O)C(=NC1CCCCC1)NNc1cccc(C(F)(F)F)c1	NO
Cc1ccccc1OCC(=O)N1N=C(c2cccnc2)CC1(O)C(F)(F)F (centres undefined)	NO
COc1cc(/C=C2/C(=O)NN(c3cccc(C)c3)C2=O)ccc1OC(=O)c1ccco1	NO
CN(C)c1ccc(N=Nc2ccccc2C(=O)OCC(=O)NCC2CCCCC2)cc1	NO
N#Cc1c(-c2ccc(Cl)cc2)c(C#N)c(=O)n(N)c1N	NO
C=CCOC(=O)C1=C(C)NC(SCC(N)=O)=C(C#N)C1c1cccs1 (centres undefined)	NO
CN(C)c1cccc2c1C(=O)c1ccccc1C2=O	NO
CC(NS(=O)(=O)c1ccc2c(c1)OCCCO2)C(=O)O (centres undefined)	NO
CC(=O)Nc1ccc(S(=O)(=O)NCC(=O)OCC(=O)NC(=O)C2CCCCC2)cc1	NO
